# credit: the nanobody polyreactivity screen of Harvey et al. (2022)

- PROTOCOL: yeast display, Sf9 membrane polyspecificity reagent, FACS + sequencing; frameworks hold sequencing errors
OUTCOME_MEASURE: polyreactivity (PSR sort gate)

QVQLVESGGGLVQAGGSLRLSCAASGSIIQVYAMGWYRQAPGKERELVASITRTGGSTYYADSVKGSFTISRDNAKNTVYLQMNSLKPEDTAVYYCAARRVTSPFGSDSWGQGTQVTVSS ... low polyreactivity
QGQLVESGGGLVQAGGSLRLSCAASGRTFVRNAMGWSSQGPGKEREWVAAISSIGDSTYYAYSLKGRFTISRDNAKNTVYLQLNTLKPEDTAVYYCAAECVTSYYNYYHWGQGTQVTVSS ... low polyreactivity
QVQLVESGGGLVQAGGGHRLSCAASGRTFTYNAMGWYRQAPGKERELVAAITSGGSTNYADSVKGRYTISRDNAKNTVYLQMNSLKPEDTAVYYCAADGDDYTTTEFDYWGQGTQVTVSS ... low polyreactivity
QVQLVESGGGLVQAGGSLRLSCAASGRTFFQYAMGGYRQAPGKERELVAAIRWSDSTYYADSVKGRFTISRDKAKNTVYLPMNSLKPEDTAVYYCNASVFQSEYDYWGQGTQVTVSS ... low polyreactivity
QVQLVESGGGLVQAGCSLRLSCAASGRTFYTVYARGWYRQAPGKERELVAAITKDGTTTYYADSVKGRFTISRDNAKNTVYIEMNSLKQEDTAVYYCNADVSQPWGGGEYNYWGQGTQVTVSS ... high polyreactivity

Input `QVQLVESGGGLVQAGGSLRLSCAASGFTFQYYAMGWYRQAPGKERELVAAITRGDSTNYADSVKGRFTISRDNAKNTVYLQMNSLKPEDTAVYYCAKSVRYPASDYWGQGTQVTVSS` . Output polyreactivity (PSR sort gate): low polyreactivity

Record `QVQLVESGGGLVQAGGSLRLSCAASGSTFYIYAMGWYRQAPGKERELVAAITWRGGGTYYADSVKGRFTISRDNAKNTVYLEMNSLKPEDTAVYYCNADYPRSRGVKYDYWGQGTQVTVSS` . Reported polyreactivity (PSR sort gate): high polyreactivity

Measured polyreactivity (PSR sort gate) of `QEQLHESGGGQVQAGGSLLLSCAASGNIIRYYYIGCYRQAPGKEPELVAAITYGTSTNYADSVKGRFTISRDNAKNTVYLQMNSLKPEDTAVYYCAVDVNYGDPLDNWGQGTQVTVSS` : high polyreactivity

Given item `QVQLVESGGGLVQAGGSLRLSCAASGSIFSFYTMGWYRQAPGKERELVASISRSGGTTYYADSVKGRFTISRDNAKNTVYLQMNSLKPEDTAVYYCAVRQAKYGGAYYGYYYWGQGTQVTVSS` , the value recorded as its polyreactivity (PSR sort gate) is high polyreactivity
